# maps each entry to its Ratio IC50
organism: Homo sapiens; assay: Selectivity ratio of IC50 for recombinant human GST-tagged EGFR cytoplasmic domain (668 to 1210 residues) expressed in baculovirus expression system to IC50 for recombinant human GST-tagged EGFR L858R/T790M double mutant cytoplasmic domain (668 to 1210 residues) expressed in baculovirus expression system
Could you respond with only the numeric value?

Q: # input compound: C=CC(=O)Nc1cc(Nc2ncc3ncn(-c4ccc(Cl)cc4)c3n2)c(OC)cc1N(C)CCN(C)C ; wanted: its Ratio IC50
A: 7

Q: # input compound: C=CC(=O)Nc1cc(Nc2ncc3nc(Nc4ccccc4)n(C(C)C)c3n2)c(OC)cc1N(C)CCN(C)C ; wanted: its Ratio IC50
A: 8

Q: # input compound: C=CC(=O)Nc1cc(Nc2ncc3ncn(-c4ccc(C(C)C)cc4)c3n2)c(OC)cc1N(C)CCN(C)C ; wanted: its Ratio IC50
A: 6

Q: # input compound: C=CC(=O)Nc1cc(Nc2ncc3ncn(-c4ccc(F)c(Br)c4)c3n2)c(OC)cc1N(C)CCN(C)C ; wanted: its Ratio IC50
A: 4.3

Q: # input compound: C=CC(=O)Nc1cc(Nc2ncc3ncn(-c4ccc(I)cc4)c3n2)c(OC)cc1N(C)CCN(C)C ; wanted: its Ratio IC50
A: 4.9

Q: # input compound: C=CC(=O)Nc1cc(Nc2ncc3nc(Nc4ccccc4)n(C)c3n2)c(OC)cc1N(C)CCN(C)C ; wanted: its Ratio IC50
A: 8.3

Q: # input compound: C=CC(=O)Nc1cc(Nc2ncc3ncn(-c4ccc(F)cc4)c3n2)c(OC)cc1N(C)CCN(C)C ; wanted: its Ratio IC50
A: 5.6

---

organism: Homo sapiens; test: Selectivity ratio of IC50 for human A549 cells expressing wild-type EGFR/K-Ras mutant to IC50 for human NCI-H1975 cells expressing EGFR L858R/T790M double mutant
Reported metric: Ratio IC50
Could you respond with only the numeric value?

Some solved entries appear below for comparison.
{"Substance smiles": "C=CC(=O)Nc1cc(Nc2ncc3ncn(-c4ccc(OC)cc4)c3n2)c(OC)cc1N(C)CCN(C)C", "Ratio IC50": 42}
{"Substance smiles": "C=CC(=O)Nc1cc(Nc2ncc3ncn(-c4ccc(F)c(Cl)c4)c3n2)c(OC)cc1N(C)CCN(C)C", "Ratio IC50": 35}
{"Substance smiles": "C=CC(=O)Nc1cc(Nc2ncc3ncn(-c4ccc(F)cc4)c3n2)c(OC)cc1N(C)CCN(C)C", "Ratio IC50": 7}
{"Substance smiles": "C=CC(=O)Nc1cc(Nc2ncc3ncn(-c4ccccc4)c3n2)c(OC)cc1N(C)CCN(C)C", "Ratio IC50": 58}

The record that follows has no Ratio IC50 shown yet.
Q: # input compound: C=CC(=O)Nc1cc(Nc2ncc3ncn(C4CCCC4)c3n2)c(OC)cc1N(C)CCN(C)C ; wanted: its Ratio IC50
A: 9
